measured.target: EPHB3A (Homo sapiens)
Construct: purchased in-house DSF kinase panel (SGC-style construct names; the trailing letter is the construct ID)
Sequence (P54753 34-998): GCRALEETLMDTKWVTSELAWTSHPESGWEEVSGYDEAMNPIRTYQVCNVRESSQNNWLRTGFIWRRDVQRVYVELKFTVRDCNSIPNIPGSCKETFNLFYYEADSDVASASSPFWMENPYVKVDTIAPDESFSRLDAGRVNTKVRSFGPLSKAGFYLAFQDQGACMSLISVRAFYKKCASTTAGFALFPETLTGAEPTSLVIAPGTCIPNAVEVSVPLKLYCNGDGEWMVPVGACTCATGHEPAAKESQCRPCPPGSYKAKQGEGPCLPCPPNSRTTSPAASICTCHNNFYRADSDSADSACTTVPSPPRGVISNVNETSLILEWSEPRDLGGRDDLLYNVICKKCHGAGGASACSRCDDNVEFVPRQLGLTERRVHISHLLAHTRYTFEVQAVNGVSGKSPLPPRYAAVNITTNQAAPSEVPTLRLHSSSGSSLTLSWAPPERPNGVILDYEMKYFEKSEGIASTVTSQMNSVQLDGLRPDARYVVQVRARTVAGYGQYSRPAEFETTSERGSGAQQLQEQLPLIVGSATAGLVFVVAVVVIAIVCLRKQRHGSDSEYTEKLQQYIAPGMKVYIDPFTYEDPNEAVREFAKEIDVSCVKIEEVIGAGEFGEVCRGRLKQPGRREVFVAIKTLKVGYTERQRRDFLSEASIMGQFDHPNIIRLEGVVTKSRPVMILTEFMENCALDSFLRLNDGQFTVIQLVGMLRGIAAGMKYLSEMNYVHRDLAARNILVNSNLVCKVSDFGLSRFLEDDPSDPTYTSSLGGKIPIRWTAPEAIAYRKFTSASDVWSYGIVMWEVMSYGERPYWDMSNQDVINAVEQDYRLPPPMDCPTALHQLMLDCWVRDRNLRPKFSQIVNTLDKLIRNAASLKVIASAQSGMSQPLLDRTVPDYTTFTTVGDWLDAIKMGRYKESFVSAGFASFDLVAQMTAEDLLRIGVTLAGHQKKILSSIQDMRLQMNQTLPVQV
protocol.details: DSF Tm panel
Type: binding
stated.conditions: 10 μM compound
readout: ΔTm at 10 µM (°C)
Please reply with the bare figure in °C and do not write the unit itself.

Record excerpt, results attached:
Reported ΔTm at 10 µM of O=C(NCc1ccc(Cl)cc1)Nc1ccc2cc1OCCOCCNc1ccn3ncc-2c3n1 : -0.1

Reported ΔTm at 10 µM of O=C(NCc1ccc(C(F)(F)F)cc1)Nc1ccc2cc1OCCOCCNc1ccn3ncc-2c3n1 : 1.4

Reported ΔTm at 10 µM of COc1ccc(CNC(=O)Nc2ccc3cc2OCCOCCNc2ccn4ncc-3c4n2)cc1F : 0.6

Reported ΔTm at 10 µM of Cc1ccc(F)cc1CNC(=O)Nc1ccc2cc1OCCOCCNc1ccn3ncc-2c3n1 : 0.9

Reported ΔTm at 10 µM of COc1cc(CNC(=O)Nc2ccc3cc2OCCOCCNc2ccn4ncc-3c4n2)ccc1F : 0.8

Reported ΔTm at 10 µM of COc1ccccc1CNC(=O)Nc1ccc2cc1OCCOCCNc1ccn3ncc-2c3n1 : 0.4

Reported ΔTm at 10 µM of O=C(NCc1ccc(Cl)cc1F)Nc1ccc2cc1OCCOCCNc1ccn3ncc-2c3n1 : -0.4

Reported ΔTm at 10 µM of O=C(NCc1ccccc1)Nc1ccc2cc1OCCOCCNc1ccn3ncc-2c3n1 : 0.8

Next:
Reported ΔTm at 10 µM of CN1CCN(C(=O)Nc2ccc3cc2OCCOCCNc2ccn4ncc-3c4n2)CC1 : 0.6

Reported ΔTm at 10 µM of COc1ccc(CNC(=O)Nc2ccc3cc2OCCOCCNc2ccn4ncc-3c4n2)cc1 : 0.8

----------
Documented ΔTm at 10 µM across a set of molecules
measured.target: MAP2K6A (Homo sapiens)
Construct: purchased in-house DSF kinase panel (SGC-style construct names; the trailing letter is the construct ID)
Sequence (P52564 53-314): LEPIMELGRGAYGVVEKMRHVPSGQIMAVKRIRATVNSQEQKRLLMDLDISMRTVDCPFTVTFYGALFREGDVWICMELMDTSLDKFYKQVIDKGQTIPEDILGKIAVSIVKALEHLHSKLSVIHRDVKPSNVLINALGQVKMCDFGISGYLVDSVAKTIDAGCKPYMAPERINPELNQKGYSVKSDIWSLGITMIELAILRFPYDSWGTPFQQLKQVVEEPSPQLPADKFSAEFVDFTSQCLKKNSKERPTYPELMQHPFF
protocol.details: DSF Tm panel
Type: binding
stated.conditions: 10 μM compound
Please reply with the bare figure in °C and do not write the unit itself.

Reported ΔTm at 10 µM of O=C(NCc1ccccc1C(F)(F)F)Nc1ccc2cc1OCCOCCNc1ccn3ncc-2c3n1 : 1.2

Next:
Reported ΔTm at 10 µM of O=C(NCc1ccccc1)Nc1ccc2cc1OCCOCCNc1ccn3ncc-2c3n1 : 1.4

Reported ΔTm at 10 µM of Cc1cc(Cl)ccc1CNC(=O)Nc1ccc2cc1OCCOCCNc1ccn3ncc-2c3n1 : 0.4

Reported ΔTm at 10 µM of O=C(NCc1ccc(Cl)cc1F)Nc1ccc2cc1OCCOCCNc1ccn3ncc-2c3n1 : 1.3

Reported ΔTm at 10 µM of O=C(NCc1ccccc1Cl)Nc1ccc2cc1OCCOCCNc1ccn3ncc-2c3n1 : 0.9

----------
Documented ΔTm at 10 µM across a set of compounds
measured.target: SRPK1A (Homo sapiens, UniProt Q96SB4)
Construct: purchased in-house DSF kinase panel (SGC-style construct names; the trailing letter is the construct ID)
Sequence (Q96SB4 80-653): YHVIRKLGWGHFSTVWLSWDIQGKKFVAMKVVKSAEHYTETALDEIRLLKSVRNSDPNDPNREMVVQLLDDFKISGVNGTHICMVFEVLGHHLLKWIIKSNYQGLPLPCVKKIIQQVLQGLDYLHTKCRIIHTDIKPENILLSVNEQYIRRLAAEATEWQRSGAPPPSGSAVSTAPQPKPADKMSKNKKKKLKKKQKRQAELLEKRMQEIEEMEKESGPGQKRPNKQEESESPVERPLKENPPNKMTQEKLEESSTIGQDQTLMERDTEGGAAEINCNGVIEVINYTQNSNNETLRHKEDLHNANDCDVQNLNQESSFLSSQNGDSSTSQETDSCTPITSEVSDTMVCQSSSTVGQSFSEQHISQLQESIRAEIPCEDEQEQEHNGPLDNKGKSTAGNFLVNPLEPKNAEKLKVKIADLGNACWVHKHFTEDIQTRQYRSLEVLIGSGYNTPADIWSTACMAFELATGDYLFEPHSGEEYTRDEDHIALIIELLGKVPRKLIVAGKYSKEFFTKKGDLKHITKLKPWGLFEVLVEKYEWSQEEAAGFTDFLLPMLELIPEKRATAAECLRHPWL
protocol.details: DSF Tm panel
Assay type: binding
stated.conditions: 10 μM compound
Please reply with the bare figure in °C and do not write the unit itself.

Record excerpt, results attached:
Reported ΔTm at 10 µM of O=C(NCc1ccccc1)Nc1ccc2cc1OCCOCCNc1ccn3ncc-2c3n1 : 0

Reported ΔTm at 10 µM of Cc1cc(Cl)ccc1CNC(=O)Nc1ccc2cc1OCCOCCNc1ccn3ncc-2c3n1 : 0.2

Reported ΔTm at 10 µM of COc1ccc(CNC(=O)Nc2ccc3cc2OCCOCCNc2ccn4ncc-3c4n2)cc1F : 0

Reported ΔTm at 10 µM of COc1ccc(CNC(=O)Nc2ccc3cc2OCCOCCNc2ccn4ncc-3c4n2)cc1 : 0.1

Reported ΔTm at 10 µM of C[C@H](NC(=O)Nc1ccc2cc1OCCOCCNc1ccn3ncc-2c3n1)c1ccccc1 : -0.1

Reported ΔTm at 10 µM of O=C(NCc1ccc(Cl)cc1Cl)Nc1ccc2cc1OCCOCCNc1ccn3ncc-2c3n1 : 0.6

Reported ΔTm at 10 µM of O=C(NCc1ccc(C(F)(F)F)cc1)Nc1ccc2cc1OCCOCCNc1ccn3ncc-2c3n1 : 0

Field: next compound
Reported ΔTm at 10 µM of COc1cccc(CNC(=O)Nc2ccc3cc2OCCOCCNc2ccn4ncc-3c4n2)c1 : 0.1

----------
measured.target: DYRK1AA (Homo sapiens, UniProt Q13627)
Construct: purchased in-house DSF kinase panel (SGC-style construct names; the trailing letter is the construct ID)
protocol.details: DSF Tm panel
Assay type: binding
stated.conditions: 10 μM compound
readout: ΔTm at 10 µM (°C)
Please reply with the bare figure in °C and do not write the unit itself.

Reported ΔTm at 10 µM of COc1cccc(CNC(=O)Nc2ccc3cc2OCCOCCNc2ccn4ncc-3c4n2)c1 [compound 30] : -0.4

Reported ΔTm at 10 µM of O=C(NCc1cccc(Cl)c1)Nc1ccc2cc1OCCOCCNc1ccn3ncc-2c3n1 [compound 18] : 1.1

Reported ΔTm at 10 µM of Cc1ccc(F)cc1CNC(=O)Nc1ccc2cc1OCCOCCNc1ccn3ncc-2c3n1 [compound 26] : 0.8

Next:
Reported ΔTm at 10 µM of O=C(NCc1ccc(Cl)cc1)Nc1ccc2cc1OCCOCCNc1ccn3ncc-2c3n1 [compound 19] : -1

Reported ΔTm at 10 µM of CN1CCN(C(=O)Nc2ccc3cc2OCCOCCNc2ccn4ncc-3c4n2)CC1 [compound 35] : -1.5

Reported ΔTm at 10 µM of O=C(NCc1ccc(Cl)cc1F)Nc1ccc2cc1OCCOCCNc1ccn3ncc-2c3n1 [compound 21] : 0.7

Reported ΔTm at 10 µM of COc1cc(CNC(=O)Nc2ccc3cc2OCCOCCNc2ccn4ncc-3c4n2)ccc1F [compound 33] : 0.9

Reported ΔTm at 10 µM of O=C(NCc1ccccc1Cl)Nc1ccc2cc1OCCOCCNc1ccn3ncc-2c3n1 [compound 17] : -1.3

----------
Documented ΔTm at 10 µM across a set of molecules
measured.target: CAMK4A (Homo sapiens, UniProt Q16566)
Construct: purchased in-house DSF kinase panel (SGC-style construct names; the trailing letter is the construct ID)
Sequence (Q16566 whole entry): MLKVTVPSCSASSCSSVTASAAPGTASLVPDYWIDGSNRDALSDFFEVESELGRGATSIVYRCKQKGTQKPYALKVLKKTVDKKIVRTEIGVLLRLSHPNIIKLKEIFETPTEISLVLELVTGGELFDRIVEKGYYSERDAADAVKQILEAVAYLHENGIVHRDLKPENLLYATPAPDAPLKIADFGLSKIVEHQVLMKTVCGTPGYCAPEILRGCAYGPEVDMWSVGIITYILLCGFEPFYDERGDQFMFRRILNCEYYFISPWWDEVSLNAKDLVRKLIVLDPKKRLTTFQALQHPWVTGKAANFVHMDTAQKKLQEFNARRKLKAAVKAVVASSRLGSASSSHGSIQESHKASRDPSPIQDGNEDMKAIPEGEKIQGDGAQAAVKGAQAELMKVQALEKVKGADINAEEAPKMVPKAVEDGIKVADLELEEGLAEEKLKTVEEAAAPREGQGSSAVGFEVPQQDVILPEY
protocol.details: DSF Tm panel
Format: binding
stated.conditions: 10 μM compound
Please reply with the bare figure in °C and do not write the unit itself.

Record excerpt, results attached:
Reported ΔTm at 10 µM of O=C(NCc1ccc(Cl)cc1Cl)Nc1ccc2cc1OCCOCCNc1ccn3ncc-2c3n1 : 0.4

Reported ΔTm at 10 µM of O=C(NCc1ccccc1)Nc1ccc2cc1OCCOCCNc1ccn3ncc-2c3n1 : 0.5

Reported ΔTm at 10 µM of COc1cc(CNC(=O)Nc2ccc3cc2OCCOCCNc2ccn4ncc-3c4n2)ccc1F : 1

Field: next molecule
Reported ΔTm at 10 µM of C[C@H](NC(=O)Nc1ccc2cc1OCCOCCNc1ccn3ncc-2c3n1)c1ccccc1 : 0.6

----------
measured.target: ABL1 (ABL1A) (Homo sapiens, UniProt P00519)
Construct: purchased in-house DSF kinase panel (SGC-style construct names; the trailing letter is the construct ID)
Sequence (P00519 229-512): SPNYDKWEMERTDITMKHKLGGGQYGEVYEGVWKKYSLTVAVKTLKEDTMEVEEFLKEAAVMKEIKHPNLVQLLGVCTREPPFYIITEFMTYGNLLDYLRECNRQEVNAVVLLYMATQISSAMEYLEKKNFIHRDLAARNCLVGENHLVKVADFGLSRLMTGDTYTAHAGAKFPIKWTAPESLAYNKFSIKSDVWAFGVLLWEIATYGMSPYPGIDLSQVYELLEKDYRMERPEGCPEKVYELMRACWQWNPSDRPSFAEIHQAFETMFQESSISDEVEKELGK
protocol.details: DSF Tm panel
Type: binding
stated.conditions: 10 μM compound
Documented ΔTm at 10 µM across a set of compounds
Please reply with the bare figure in °C and do not write the unit itself.

Record excerpt, results attached:
Measured on ABL1 (ABL1A) (Homo sapiens, UniProt P00519), Cc1cc(Br)ccc1CNC(=O)Nc1ccc2cc1OCCOCCNc1ccn3ncc-2c3n1 has a documented ΔTm at 10 µM of -0.4

Measured on ABL1 (ABL1A) (Homo sapiens, UniProt P00519), O=C(NCc1cccc(Cl)c1)Nc1ccc2cc1OCCOCCNc1ccn3ncc-2c3n1 has a documented ΔTm at 10 µM of 1.8

Measured on ABL1 (ABL1A) (Homo sapiens, UniProt P00519), O=C(NCc1ccc(Cl)cc1Cl)Nc1ccc2cc1OCCOCCNc1ccn3ncc-2c3n1 has a documented ΔTm at 10 µM of 2.2

Measured on ABL1 (ABL1A) (Homo sapiens, UniProt P00519), COc1ccccc1CNC(=O)Nc1ccc2cc1OCCOCCNc1ccn3ncc-2c3n1 has a documented ΔTm at 10 µM of 0.7

Measured on ABL1 (ABL1A) (Homo sapiens, UniProt P00519), CN1CCN(C(=O)Nc2ccc3cc2OCCOCCNc2ccn4ncc-3c4n2)CC1 has a documented ΔTm at 10 µM of 1.4

Next:
Measured on ABL1 (ABL1A) (Homo sapiens, UniProt P00519), O=C(NCc1ccc(C(F)(F)F)cc1)Nc1ccc2cc1OCCOCCNc1ccn3ncc-2c3n1 has a documented ΔTm at 10 µM of 0.9

Measured on ABL1 (ABL1A) (Homo sapiens, UniProt P00519), COc1ccc(CNC(=O)Nc2ccc3cc2OCCOCCNc2ccn4ncc-3c4n2)cc1 has a documented ΔTm at 10 µM of 1.7

Measured on ABL1 (ABL1A) (Homo sapiens, UniProt P00519), O=C(NCc1ccccc1C(F)(F)F)Nc1ccc2cc1OCCOCCNc1ccn3ncc-2c3n1 has a documented ΔTm at 10 µM of 2.4

Measured on ABL1 (ABL1A) (Homo sapiens, UniProt P00519), COc1cc(CNC(=O)Nc2ccc3cc2OCCOCCNc2ccn4ncc-3c4n2)ccc1F has a documented ΔTm at 10 µM of 1.5

Measured on ABL1 (ABL1A) (Homo sapiens, UniProt P00519), COc1cccc(CNC(=O)Nc2ccc3cc2OCCOCCNc2ccn4ncc-3c4n2)c1 has a documented ΔTm at 10 µM of 1.5
